# Protocol Text: Inhibitory activity against porcine pancreatic elastase (PPE)
pIC50: −log10 of the molar value.
Reported Metric: pIC50

Example compounds with recorded pIC50:
O=C(CCc1cccc(C(F)(F)F)c1)N[C@@H](Cc1ccccc1)C(=O)CCl: 4.43
CC(C)c1ccc(CCC(=O)N[C@@H](Cc2ccccc2)C(=O)CCl)cc1: 4.82
O=C(CCc1ccccc1)N[C@@H](Cc1ccccc1)C(=O)CCl: 3.82
Cc1cccc(CCC(=O)N[C@@H](Cc2ccccc2)C(=O)CCl)c1: 3.89
O=C(CCc1cccc(F)c1)N[C@@H](Cc1ccccc1)C(=O)CCl: 3.55
COc1ccccc1CCC(=O)N[C@@H](Cc1ccccc1)C(=O)CCl: 4.07

A = O=C(CCc1cccc(Cl)c1Cl)N[C@@H](Cc1ccccc1)C(=O)CCl
B = Cc1ccc(CCC(=O)N[C@@H](Cc2ccccc2)C(=O)CCl)cc1
C = O=C(CCc1ccc(F)cc1)N[C@@H](Cc1ccccc1)C(=O)CCl
D = O=C(CCc1ccc(C(F)(F)F)cc1)N[C@@H](Cc1ccccc1)C(=O)CCl
E = COc1cccc(CCC(=O)N[C@@H](Cc2ccccc2)C(=O)CCl)c1
rank_up(items): orders items by reported pIC50 in ascending numerical order. The reply should contain the labels ordered as requested.
E, C, B, A, D

* * *

# Protocol Text: Inhibitory activity against porcine pancreatic elastase (PPE)
pIC50: −log10 of the molar value.
// pIC50 lookup, one value per entry

O=C(/C=C/c1ccccc1)N[C@@H](Cc1ccccc1)C(=O)CCl: 4.59
O=C(CCc1cccc(O)c1)N[C@@H](Cc1ccccc1)C(=O)CCl: < 3.00

// moving on: another record for pIC50
Retrieve pIC50 measured for O=C(CCc1ccc(O)cc1)N[C@@H](Cc1ccccc1)C(=O)CCl and print it.
< 3.00

meta.source: BindingDB's records for doi:10.1016/s0960-894x(99)00659-9
